experimental-target: UniProt:Q9UKV0
Sequence (Q9UKV0 whole entry): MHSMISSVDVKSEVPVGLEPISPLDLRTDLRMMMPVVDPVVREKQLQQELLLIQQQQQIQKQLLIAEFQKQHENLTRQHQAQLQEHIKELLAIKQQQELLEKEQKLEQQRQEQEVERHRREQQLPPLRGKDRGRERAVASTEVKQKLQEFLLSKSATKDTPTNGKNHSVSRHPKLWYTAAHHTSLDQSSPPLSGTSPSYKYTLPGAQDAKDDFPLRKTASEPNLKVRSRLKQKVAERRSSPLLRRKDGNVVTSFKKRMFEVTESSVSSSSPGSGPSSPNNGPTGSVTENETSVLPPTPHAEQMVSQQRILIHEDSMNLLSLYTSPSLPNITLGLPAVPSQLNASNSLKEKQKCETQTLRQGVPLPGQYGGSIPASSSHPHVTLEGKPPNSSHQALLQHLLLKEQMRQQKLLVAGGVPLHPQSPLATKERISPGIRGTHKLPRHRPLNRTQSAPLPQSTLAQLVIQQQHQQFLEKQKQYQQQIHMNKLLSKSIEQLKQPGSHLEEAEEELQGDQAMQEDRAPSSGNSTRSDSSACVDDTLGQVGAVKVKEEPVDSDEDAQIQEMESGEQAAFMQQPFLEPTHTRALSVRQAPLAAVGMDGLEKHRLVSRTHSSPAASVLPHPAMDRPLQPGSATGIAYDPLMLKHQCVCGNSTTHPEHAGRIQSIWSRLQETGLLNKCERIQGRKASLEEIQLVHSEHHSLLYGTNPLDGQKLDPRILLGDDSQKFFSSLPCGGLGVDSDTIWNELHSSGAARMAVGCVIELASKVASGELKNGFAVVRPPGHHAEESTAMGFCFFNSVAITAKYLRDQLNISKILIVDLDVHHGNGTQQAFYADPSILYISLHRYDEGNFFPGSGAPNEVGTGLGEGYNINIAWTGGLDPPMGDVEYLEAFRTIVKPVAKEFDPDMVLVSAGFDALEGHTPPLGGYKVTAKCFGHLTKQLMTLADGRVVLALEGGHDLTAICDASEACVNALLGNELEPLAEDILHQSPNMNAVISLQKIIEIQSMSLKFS
pKi: −log10 of the molar value.
pKi of 8 or higher: 1 (yes). Under 8: 0 (no).

Past entries and their recorded results:
{"columns": ["smiles-code", "discrete-label"],
 "data": [
  ["CCCCc1nc2cc(/C=C/C(=O)NO)ccc2n1CCNC(C)C", "0 (no)"],
  ["CCCCc1nc2cc(/C=C/C(=O)NO)ccc2n1CCN(CC)CC.Cl.Cl", "0 (no)"],
  ["CCCCCc1nc2cc(/C=C/C(=O)NO)ccc2n1CCNC(C)C", "1 (yes)"]
]}

Below: the item to evaluate.
Request: Does the molecule O=C(/C=C/c1ccc2c(c1)nc(CCc1ccccc1)n2CCN1CCCCC1)NO have recorded pKi that is 8 or more?
Response: 0 (no)
